Values were extracted from patent US11566007B2.

Target: KRAS G12S (Homo sapiens (Human), UniProt P01116+P62937, G12S)
Sequence (P01116-2 other isoform, or with tags, fused parts or gaps G12S): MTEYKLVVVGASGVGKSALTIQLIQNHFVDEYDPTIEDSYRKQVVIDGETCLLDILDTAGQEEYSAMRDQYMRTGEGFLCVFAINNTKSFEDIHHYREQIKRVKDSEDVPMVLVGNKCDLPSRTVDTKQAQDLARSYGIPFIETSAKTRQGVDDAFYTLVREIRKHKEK
Sequence (P62937 whole entry): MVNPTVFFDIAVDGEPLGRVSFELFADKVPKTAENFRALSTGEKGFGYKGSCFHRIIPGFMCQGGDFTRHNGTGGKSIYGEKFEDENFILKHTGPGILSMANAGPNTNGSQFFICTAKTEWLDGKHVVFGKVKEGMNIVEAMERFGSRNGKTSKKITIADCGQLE
Assay: Ras-Raf (BRAF RBD) disruption / FRET / MOA assay, KRAS G12S
Type: biochemical
Conditions: Ras-Raf disruption/FRET/MOA assay; class symbols; read-out: KRAS G12S FRET data IC50
pIC50: −log10 of the molar value.
Documented pIC50 across a set of molecules

* C=CC(=O)N1CC[C@H](C(=O)N(C)[C@H](C(=O)N[C@@H]2C(=O)N3CCC[C@H](N3)C(=O)OCC(C)(C)Cc3c(-c4cncnc4)n(CC)c4ccc(cc34)-c3cccc(c3)[C@H]2OC)C(C)C)C1 [Example A273] | < 5.00

Data request, read-out pIC50, for C=CC(=O)N1CC(C(=O)N(C)[C@H](C(=O)N[C@H]2Cc3cc(O)cc(c3)-c3ccc4c(c3)c(c(-c3cccnc3[C@H](C)OC)n4CC)CC(C)(C)COC(=O)[C@@H]3CCCN(N3)C2=O)C(C)C)C1 (atropisomer, axis not shown) [Example A256]
7.00 to 8.00

Data request, read-out pIC50, for CCn1c(-c2cccnc2COC)c2c3cc(ccc31)-c1cc(O)cc(c1)C[C@H](NC(=O)[C@@H](C(C)C)N(C)C(=O)[C@H]1C[C@@H](C)N(C(=O)C#CCN(C)C)C1)C(=O)N1CCC[C@H](N1)C(=O)OCC(C)(C)C2 [Example A165]
< 5.00

Data request, read-out pIC50, for C=CC(=O)N1CC[C@](C#N)(C(=O)N(C)[C@H](C(=O)N[C@H]2Cc3cccc(c3)-c3ccc4c(c3)c(c(-c3cccnc3[C@H](C)OC)n4CC)CC(C)(C)COC(=O)[C@@H]3CCCN(N3)C2=O)C(C)C)C1 (atropisomer, axis not shown) [Example A443]
6.00 to 7.00

Data request, read-out pIC50, for CCn1c(-c2cccnc2[C@H](C)OC)c2c3cc(ccc31)-c1cccc(c1)C[C@H](NC(=O)[C@H](C(C)C)N(C)C(=O)[C@H]1CCN(C(=O)/C=C/CF)C1)C(=O)N1CCC[C@H](N1)C(=O)OCC(C)(C)C2 [Example A449]
5.00 to 6.00

Data request, read-out pIC50, for C=CC(=O)N1CC[C@H](C(=O)N(C)[C@H](C(=O)N[C@H]2Cc3cc(O)cc(c3)-c3ccc4c(c3)c(c(-c3cc(CN(C)C)cnc3[C@H](C)OC)n4CC)CC(C)(C)COC(=O)[C@@H]3CCCN(N3)C2=O)C(C)C)C1 (atropisomer, axis not shown) [Example A537]
7.00 to 8.00

Data request, read-out pIC50, for C=CC(=O)N1CCC2(CC1)CCN(C(=O)N(C)[C@H](C(=O)N[C@H]1Cc3nc(cs3)-c3ccc4c(c3)c(c(-c3cccnc3[C@H](C)OC)n4CC)CC(C)(C)COC(=O)[C@@H]3CCCN(N3)C1=O)C(C)C)CC2 (atropisomer, axis not shown) [Example A697]
6.00 to 7.00

Data request, read-out pIC50, for CCn1c(-c2cccnc2[C@H](C)OC)c2c3cc(ccc31)-c1cccc(c1)C[C@H](NC(=O)[C@H](C(C)C)N1CCC3(CN(C(=O)C#CC(C)(C)N(C)C)C3)C1=O)C(=O)N1CCC[C@H](N1)C(=O)OCC(C)(C)C2 (atropisomer, axis not shown) [Example A324]
5.00 to 6.00
